# Protocol Details: MRC5 toxicity assay
# Format: cell-based, human
# Study Conditions: human, MRC-5 human fetal lung fibroblast cells, MRC-5 cells, 96-h incubation, mean of triplicate; read-out: Cytotoxicity IC50 on MRC-5 cells
# Method: The cytotoxicity of compounds was studied with human fibroblast (MRC5). Cells were grown in RPMI 1640 medium (Sigma-Aldrich, Saint-Quentin Fallavier, France) supplemented with 10% fetal bovin serum (Sigma–Aldrich). Drugs were tested at three concentrations (100, 10, and 1 µM) in triplicate. After a 96-h incubation time, cytotoxicity was measured on the Fluorolite 1000 (Dynatech, Guyancourt, France) after a 4-h incubation time with Uptiblue® (Interchim, Montluçon, France). […]
Hi there, I'd appreciate the recorded IC50 at 96 h for every entry that follows.

The following molecules have reported results that may help.
{"Molecule": "OC(Cn1cncn1)(Cn1ccc2ccccc21)c1ccc(F)cc1 (centres unmarked) [Compound 11a]", "IC50 at 96 h": "> 100 µM"}
{"Molecule": "OC(Cn1cncn1)(Cn1ccc2ccccc21)c1ccc(Cl)cc1 (centres unmarked) [Compound 11b]", "IC50 at 96 h": "> 100 µM"}
{"Molecule": "Cc1cc2ccccc2n1CC(O)(Cn1cncn1)c1ccc(F)cc1F (centres unmarked) [Compound 11f]", "IC50 at 96 h": "~190 µM"}
{"Molecule": "OC(Cn1cncn1)(Cn1ccc2ccccc21)c1ccc(F)cc1F (centres unmarked) [Compound 11d]", "IC50 at 96 h": "> 100 µM"}

Now consider the entry below.
Query (molecule): Cc1c(C)n(CC(O)(Cn2cncn2)c2ccc(Cl)cc2Cl)c2ccccc12 (centres unmarked) [Compound 11k] ; field requested: IC50 at 96 h
~97 µM
